Each recorded value in this set is attributed to PubChem BioAssay AID488890.

- procedure.text: growth inhibition of non-replicating M. tuberculosis (AID 488890);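 further: plate controls were DMSO cells for no effect and high antibiotic wells for full effect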
- test.settings: Mycobacterium tuberculosis non-replicating, at 25 µM, stronger effect = higher value
Hit rate of the full screen: of about 320,000 compounds, about 1,300 (0.41%) were called active. Not shown: some 3% with an inconclusive outcome. Only a sample is shown. Measured potencies and affinities stand elsewhere.
reported.metric: inhibition (%)
Just the number in %, nothing appended.

Need inhibition of CC(NC(=O)CCC(=O)c1ccc(F)cc1)C1CC2CCC1C2 (stereo not given) , thanks.
11.8

Follow-up entry: CCOC(=O)c1cc(-c2ccc(/C=N\n3cnnc3)o2)ccc1Cl
10

Follow-up entry: CCCCNCc1cc(Br)c(OCC(=O)NCc2ccccc2)c(OC)c1
68.2

Follow-up entry: CCN(CC)S(=O)(=O)c1ccc(N2CCOCC2)c(NS(=O)(=O)c2ccc(OC)cc2)c1
-8.38

Follow-up entry: NC(=O)c1cc(S(=O)(=O)N2CC=C(c3ccccc3)CC2)cs1
-1.59

Follow-up entry: CCCC(=O)n1nc(-c2ccc(Cl)cc2)nc1SC
64.9

Follow-up entry: Cc1ccc(S(=O)(=O)N2CCC(C(=O)OC(C)C(=O)N(C)c3ccccc3)CC2)cc1C (stereo not given)
36

Follow-up entry: COc1ccc(CCn2c(N)cc(=O)[nH]c2=S)cc1OC
10.4

Follow-up entry: COc1cc(CNC2CCCC2)cc(Br)c1OCC(=O)Nc1ccccc1C
45.5

Follow-up entry: O=Cc1ccc(-c2ccc(C(=O)O)cc2)o1
-8.13

Follow-up entry: CCc1ccc(NC(=O)CCCn2nc(CC)n3c(cc4occc43)c2=O)cc1
21.1

Follow-up entry: CC(C)c1cc(C(=O)N2CCN(C(c3ccccc3)c3ccccc3)CC2)no1
21.3

Follow-up entry: CC1CC(C)CN(C(=O)c2ccc(S(=O)(=O)N3CCCC3)cc2)C1 (stereo not given)
62.4

Follow-up entry: COc1ccc(NC(=O)CN(C)C(=O)c2ccccc2Sc2ncnc3sc(C)c(C)c23)cc1
19.2

Follow-up entry: CCOC(=O)c1ccc([N+](=O)[O-])cc1NC(C)=O
-5.06

Follow-up entry: O=c1[nH][nH]c(=O)n1-c1ccccc1
-3.31

Follow-up entry: CCCc1cc(=O)oc2c(C)c(OCC(=O)N3CCC[C@@H]3C(=O)O)ccc12
-11.2

Follow-up entry: COc1ccccc1-c1nnc(SCc2nc3ccccc3[nH]2)n1C
25.9

Follow-up entry: N#Cc1ccc(OCC(=O)Nc2ccncc2)cc1
46.2

Follow-up entry: CCOc1cc(CNCCc2ccc(S(N)(=O)=O)cc2)cc(Cl)c1OCc1ccccc1
73

Follow-up entry: CC(=O)OCC(=O)Nc1ccc(SC(F)F)cc1
-17.3

Follow-up entry: COc1cc(CNC2CCCC2)cc(Cl)c1OCc1ccccc1F
78.7

Follow-up entry: COc1ccc([C@@H]2CC(=O)c3c(O)cc(O[C@@H]4OC(CO[C@@H]5OC(C)[C@H](O)[C@@H](O)[C@H]5O)[C@@H](O)[C@H](O)[C@H]4O)cc3O2)cc1O (stereo not given in full)
2.5

Follow-up entry: COc1ccc(CC2C(=O)OC(C)(C)OC2=O)c(Cl)c1OC
-14.3

Follow-up entry: Cc1ccc2c(-c3ccc([N+](=O)[O-])cc3)cc(=O)[nH]c2c1
-4.88

Follow-up entry: O=C(NC1CCCc2c1cnn2-c1cc(F)cc(F)c1)c1ccncc1 (stereo not given)
4.39

Follow-up entry: O=C(CCn1c(=S)[nH]c2ccccc2c1=O)Nc1cccc(Cl)c1
-2.2

Follow-up entry: CC(NC(=O)c1cccc(S(=O)(=O)N(C)C)c1)C1CC2CCC1C2 (stereo not given)
-2.47

Follow-up entry: O=C(O)CCSc1ccccn1
-2.61

Follow-up entry: COc1ccc(N/C(C)=C/C(=O)c2ccccc2)cc1
57.9

Follow-up entry: CCN(C(=O)c1ccc(Cl)c(S(=O)(=O)Nc2c(C)n(C)n(-c3ccccc3)c2=O)c1)c1ccccc1
5.47

Follow-up entry: Cc1cc(/C=C2\NC(=O)NC2=O)c(C)n1-c1cccnc1
-6.79

Follow-up entry: CC(NC(=O)c1ccc(F)cc1F)C1CC2CCC1C2 (stereo not given)
77.7

Follow-up entry: CCc1cc2c(=O)c(-c3nc(C)cs3)coc2cc1O
13.5

Follow-up entry: O=C(NC1CCCc2c1cnn2-c1cc(F)cc(F)c1)c1ccccn1 (stereo not given)
25.6

Follow-up entry: O=C(Cc1ccc(Cl)cc1)N/N=C/c1ccccc1
16.8

Follow-up entry: CCCCOC(=O)c1cc(-c2ccc(/C=N/n3cnnc3)o2)ccc1Cl
75.6

Follow-up entry: CCCCC(=O)Nc1c2c(nn1-c1cccc(C)c1C)CS(=O)(=O)C2
-2.3

Follow-up entry: COc1ccccc1OCCCCN1CCCCC1
7.51

Follow-up entry: C/C(=C\C(=O)c1ccc(Br)cc1)NCc1ccccc1
52.8

Follow-up entry: CC/C(=N/Nc1ccccc1Cl)c1cnnc(-c2ccccc2)n1
5.04

Follow-up entry: O=C(O)c1cc(-c2ccc(Cl)cc2)n(-c2ccc(Cl)cc2)n1
28.3

Follow-up entry: OCCNCc1ccc(OCc2ccc(Cl)cc2Cl)cc1
61.3

Follow-up entry: CCCCOC(=O)c1ccc(-c2ccc(/C=N/NC(=S)NCC)o2)cc1
73.2

Follow-up entry: O=C(COc1ccc([N+](=O)[O-])cc1)Nc1cccnc1
51.3
